These data points were gathered from patent US8586755B2.

- targetEntity: KCNQ2/3 channels (Homo sapiens, UniProt O43525+O43526)
- testDescription: Fluorescence assay using a voltage sensitive dye (fluorimetry)
- conditionSet: CHO-K1 cells expressing KCNQ2/3 channels, agonistic activity
pEC50: −log10 of the molar value.
experimentalEndpoint: pEC50

[
  {
    "molecule": "O=C(NCC1CCCCO1)c1cccnc1SCCCc1ccc(F)cc1 (stereo not drawn)",
    "targetEntity": "KCNQ2/3 channels (Homo sapiens, UniProt O43525+O43526)",
    "pEC50": 6.57
  },
  {
    "molecule": "O=C(NCc1cccs1)c1cccnc1SC1CCCC(c2ccccc2)C1 (stereo not drawn)",
    "targetEntity": "KCNQ2/3 channels (Homo sapiens, UniProt O43525+O43526)",
    "pEC50": 6.26
  },
  {
    "molecule": "Cc1cccc(CCCSc2ncccc2C(=O)NCc2cccs2)c1",
    "targetEntity": "KCNQ2/3 channels (Homo sapiens, UniProt O43525+O43526)",
    "pEC50": 6.95
  },
  {
    "molecule": "O=C(NCC1CC2CCC1C2)c1cccnc1SCCCc1cccc(C(F)(F)F)c1 (stereo not drawn)",
    "targetEntity": "KCNQ2/3 channels (Homo sapiens, UniProt O43525+O43526)",
    "pEC50": 7.07
  },
  {
    "molecule": "O=C(NCC1CC2CCC1C2)c1cccnc1SCCCc1cc(F)cc(F)c1 (stereo not drawn)",
    "targetEntity": "KCNQ2/3 channels (Homo sapiens, UniProt O43525+O43526)",
    "pEC50": 6.66
  }
]

A = CC(C)(C)CCNC(=O)c1cccnc1SCCCc1ccc(F)cc1
B = O=C(NCc1nccs1)c1cccnc1SCCCc1ccc(F)cc1
Sorting ascending by pEC50, which comes first: A or B ? Answer = label. B
(B: 6.09, A: 6.89)

* * *

- targetEntity: KCNQ2/3 channels (Homo sapiens, UniProt O43525+O43526)
- Construct: expressed in transfected cells
- testDescription: Fluorescence assay using a voltage sensitive dye (fluorimetry)
- Format: cell-based
- conditionSet: CHO-K1 cells expressing KCNQ2/3 channels; retigabine 50 μM = 100%; read-out: Fluorimetry % efficacy (retigabine 50 μM = 100%)
experimentalEndpoint: Emax (%)

As a guide, the following entries are already answered.
[
  {
    "compound": "O=C(NCc1ccc2c(c1)OCO2)c1cccnc1SCCCc1ccc(F)cc1 [compound 121]",
    "targetEntity": "KCNQ2/3 channels (Homo sapiens, UniProt O43525+O43526)",
    "experimentalEndpoint": "Emax",
    "measureUnit": "%",
    "resultNumber": 99
  },
  {
    "compound": "O=C(NCc1cccs1)c1cccnc1SCCOc1cccc(C(F)(F)F)c1 [compound 4]",
    "targetEntity": "KCNQ2/3 channels (Homo sapiens, UniProt O43525+O43526)",
    "experimentalEndpoint": "Emax",
    "measureUnit": "%",
    "resultNumber": 126
  }
]

P = O=C(NCc1ccc2c(c1)OCCO2)c1cccnc1SCCCc1ccc(F)cc1 [compound 137]
Q = O=C(NCC1CCCCC1)c1cccnc1SCCCc1ccc(F)cc1 [compound 40]
Could you please tell me which of these two has the higher Emax: P or Q ? Answer = label. Q

* * *

- targetEntity: KCNQ2/3 channels (Homo sapiens, UniProt O43525+O43526)
- Construct: expressed in transfected cells
- testDescription: Fluorescence assay using a voltage sensitive dye (fluorimetry)
- Assay type: cell-based
- conditionSet: CHO-K1 cells expressing KCNQ2/3 channels; retigabine 50 μM = 100%; read-out: Fluorimetry % efficacy (retigabine 50 μM = 100%)
experimentalEndpoint: Emax (%)

[
  {
    "compound": "CC(C)CCNC(=O)c1cccnc1SCCCc1cccc(C(F)(F)F)c1",
    "Emax, %": 207
  },
  {
    "compound": "O=C(CCSc1ncccc1C(=O)NCC1CC2CCC1C2)c1ccccc1 (centres unmarked)",
    "Emax, %": 167
  },
  {
    "compound": "O=C(NCC1CC2CCC1C2)c1cccnc1SCCCc1cc(F)cc(C(F)(F)F)c1 (centres unmarked)",
    "Emax, %": 259
  },
  {
    "compound": "CCCCCNC(=O)c1cccnc1SCCC(F)(F)c1ccc(F)cc1",
    "Emax, %": 195
  },
  {
    "compound": "O=C(NCC1CCCCO1)c1cccnc1SCCC(F)(F)c1ccc(F)cc1 (centres unmarked)",
    "Emax, %": 224
  }
]
